Hey, just so you know, these numbers are from the supplement of paper PMC10567573.

Measured protein stability index, listed per entry.
B1: TRAF3IP2 (parent)
chain: KQGSMNFRFIPVLFPNAKKEHVPT

Variants of: B1
ASSAY INFO: protein stability index of a GFP-peptide fusion (GPS, HEK-293T) (PSI 1-6); higher = more stable;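 further: lentivirally expressed fusions sorted by FACS into six bins by GFP to DsRed ratio, PSI derived from sequencing read proportions per bin multiplied by bin number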
PARTICULARS: c terminus: a fixed tail appended
Just the number, please, no unit attached.

{"columns": ["VARIANT", "protein stability index"],
 "data": [
  ["K18I", 2.27],
  ["G3H", 2.01],
  ["T24L", 1.67],
  ["S4H", 1.68],
  ["M5P", 2.1],
  ["S4Q", 2.59],
  ["T24Q", 1.92],
  ["N6M", 1.58]
]}

[in] Report protein stability index for V12Q
[out] 2.4

[in] Answer with the recorded protein stability index for the variant listed here: P23N
[out] 1.86

[in] Supply recorded protein stability index for K1H here.
[out] 2.17

[in] Look up and state reported protein stability index for K19V
[out] 1.65

[in] Identify the reported protein stability index for the following entry. P15W
[out] 2.67

[in] State its protein stability index for this variant: E20Q
[out] 2.02
